Origin of values: the supplement of paper PMC12338614

B1: library; numbered along this chain (parent)
chain: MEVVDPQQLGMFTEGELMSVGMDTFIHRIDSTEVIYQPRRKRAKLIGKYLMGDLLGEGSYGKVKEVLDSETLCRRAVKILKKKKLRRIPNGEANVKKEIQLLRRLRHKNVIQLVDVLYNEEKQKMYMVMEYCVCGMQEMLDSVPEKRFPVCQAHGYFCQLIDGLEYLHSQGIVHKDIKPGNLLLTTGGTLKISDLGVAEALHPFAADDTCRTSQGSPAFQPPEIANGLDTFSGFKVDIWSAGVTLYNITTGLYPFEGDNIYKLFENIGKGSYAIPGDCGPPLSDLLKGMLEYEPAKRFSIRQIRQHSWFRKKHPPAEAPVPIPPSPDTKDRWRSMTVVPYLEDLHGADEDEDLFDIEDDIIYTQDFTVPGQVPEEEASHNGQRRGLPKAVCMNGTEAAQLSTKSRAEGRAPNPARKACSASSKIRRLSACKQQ

Variants of: B1
assayProtocol: STK11 functional score (HeLa growth suppression), rescaled enrichment; synonymous median = 1, nonsense median = 0 (normalised score)
statedConditions: with HeLa; variant type: missense
measurementName: STK11 functional score
Reply briefly: the number, and no unit.

Please review the following examples before continuing.
T230H : 1.46
M289S : -0.188
A200G : 0.439
V197W : 1.25
A76F : 0.0284

Name the reported STK11 functional score value associated with the variant P179V
0.541

Name the reported STK11 functional score value associated with the variant I172L
0.71

Name the reported STK11 functional score value associated with the variant E374G
1.12

Name the reported STK11 functional score value associated with the variant L50M
0.814

Name the reported STK11 functional score value associated with the variant P314W
1.6

Name the reported STK11 functional score value associated with the variant P89H
1.3
